Where these numbers come from: patent US20190144529A1

- system.name: T1, human serum albumin (human, UniProt P02768 25-609)
- T1 construct: mature; Bought purified serum albumin; also called HSA; Human albumin
- experimental.details: SPR, Fab captured; albumin taken as HSA;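 also: captured antibody exposed to albumin for 3 min association, then dissociation followed, with blank flow-cell reference and buffer-blank injections subtracted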
reported.metric: koff (s⁻¹)
// note: answer is a bare numeric in s⁻¹

CA645 gL29gH5 Fab (Fab, V domains shown, Fab: human gamma1 CH1, human kappa (Km3); Kabat numbering) VH: EVQLLESGGGLVQPGGSLRLSCAVSGIDLSNYAINWVRQAPGKGLEWIGIIWASGTTFYATWAKGRFTISRDNSKNTVYLQMNSLRAEDTAVYYCARTVPGYSTAPYFDLWGQGTLVTVSS VL: DIQMTQSPSSVSASVGDRVTITCQSSPSVWSNFLSWYQQKPGKAPKLLIYEASKLTSGVPSRFSGSGVGTDFTLTISSLQPEDFATYYCGGGYSSISDTTFGGGTKVEIK | 0.000103
CA645 gL28gH5 Fab (Fab, V domains shown, Fab: human gamma1 CH1, human kappa (Km3); Kabat numbering) VH: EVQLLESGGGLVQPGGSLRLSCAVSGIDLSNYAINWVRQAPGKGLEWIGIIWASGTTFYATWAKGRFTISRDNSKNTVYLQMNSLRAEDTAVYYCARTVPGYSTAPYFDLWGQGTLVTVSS VL: DIQMTQSPSSVSASVGDRVTITCQSSPSVWSNFLSWYQQKPGKAPKLLIYEASKLTSGVPSRFSGSGLGTDFTLTISSLQPEDFATYYCGGGYSSISDTTFGGGTKVEIK | 0.000109

Okay, next one:
response.value for CA645 gL31gH5 Fab (Fab, V domains shown, Fab: human gamma1 CH1, human kappa (Km3); Kabat numbering) VH: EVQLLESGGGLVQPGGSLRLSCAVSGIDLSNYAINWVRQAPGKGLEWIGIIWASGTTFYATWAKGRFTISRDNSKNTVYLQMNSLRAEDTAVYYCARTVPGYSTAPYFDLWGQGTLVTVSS VL: DIQMTQSPSSVSASVGDRVTITCQSSPSVWSNFLSWYQQKPGKAPKLLIYEASKLTSGVPSRFSGSGTGTDFTLTISSLQPEDFATYYCGGGYSSISDTTFGGGTKVEIK (field: koff) = 0.000142
